target: UniProtKB P49841; details: read-out: IC50 ADP Glo GSK3β
Property Name: IC50
Quick note: number first, unit second.

**Q:** Any idea what its IC50 is? The compound is "COc1ccccc1[C@@H]1C2=C(CC(C)(C)CC2=O)Nc2n[nH]c(C(F)(F)F)c21"
**A:** 20 nM

====

molecular target: GSK3β (Homo sapiens (Human), UniProt P49841); experiment: biochemical; details: IC50 against GSK3β at 7 μM ATP
Sequence (P49841 whole entry): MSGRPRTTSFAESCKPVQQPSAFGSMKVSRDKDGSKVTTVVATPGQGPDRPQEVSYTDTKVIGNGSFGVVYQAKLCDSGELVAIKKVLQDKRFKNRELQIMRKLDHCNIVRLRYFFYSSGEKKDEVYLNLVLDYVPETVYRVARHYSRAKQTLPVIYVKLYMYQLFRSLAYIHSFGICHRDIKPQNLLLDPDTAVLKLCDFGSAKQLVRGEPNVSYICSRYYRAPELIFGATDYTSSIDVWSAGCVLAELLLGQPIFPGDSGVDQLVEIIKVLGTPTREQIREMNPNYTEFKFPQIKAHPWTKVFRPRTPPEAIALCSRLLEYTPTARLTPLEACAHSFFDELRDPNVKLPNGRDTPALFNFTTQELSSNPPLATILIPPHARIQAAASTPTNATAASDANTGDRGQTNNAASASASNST
Property Name: IC50 (nM)
Dear colleague, please return just the value in nM, with no unit written.

**Q:** Any idea what IC50 was measured for "COc1ccccc1[C@@H]1C2=C(CC(C)(C)CC2=O)Nc2n[nH]c(C(F)(F)F)c21" ?
**A:** 24
